- assayed_system: Spike protein of SARS-CoV-2 strain D614G (hCoV-19/France/GE1973/2020) (SARS-CoV-2, UniProt P0DTC2 14-1273)
- method_notes: cell-based or functional assay
Below: a set of entries, each annotated with reported IC50, S-Fuse neutralization of live virus.
Express your answer in µg/mL, writing the number without its unit.

[
  {
    "binder": "SPK002M C1 antibody (antibody, human IgG1, kappa, V domains shown) VH: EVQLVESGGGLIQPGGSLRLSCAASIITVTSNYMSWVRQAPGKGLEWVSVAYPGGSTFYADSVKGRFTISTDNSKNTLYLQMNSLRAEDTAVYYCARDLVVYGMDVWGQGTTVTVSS VL: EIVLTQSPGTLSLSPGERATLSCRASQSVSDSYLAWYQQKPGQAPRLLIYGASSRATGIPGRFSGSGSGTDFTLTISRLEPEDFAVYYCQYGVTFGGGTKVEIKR",
    "unit_spec": "µg/mL",
    "assay_value": 0.08
  }
]

Please turn your attention to the following entry.
Ask: What does the record list as IC50, S-Fuse neutralization of live virus for SPK002M B1 antibody (antibody, human IgG1, kappa, V domains shown) VH: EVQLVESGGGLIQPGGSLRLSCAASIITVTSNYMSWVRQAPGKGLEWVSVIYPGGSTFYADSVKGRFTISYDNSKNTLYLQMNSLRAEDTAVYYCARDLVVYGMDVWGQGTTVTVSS VL: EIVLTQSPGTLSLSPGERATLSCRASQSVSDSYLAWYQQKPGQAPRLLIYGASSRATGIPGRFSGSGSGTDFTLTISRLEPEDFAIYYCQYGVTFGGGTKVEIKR ?
Reply: 0.11
